Record form. Attribute: IC50. Fill in for each entry.
target: HIV-1 YU-2 gp120 (HIV-1 (YU-2), UniProt P35961); experiment: SPR
Quick note: give the figure in nM, leave out the unit.

Task: Using the record for Fab m18 Y32A (HCDR1) (Fab, V domains shown) VH: VQLLESGPGVVKPSETLSLTCTVSGASVNNAYWTWVRQPPGKGLEWIGNVYDSGDTNYNPSLSSRLSLSMDTSKNQFSLRLSSVTAADTATYYCARYHRHFIRGPLSFDYWGRGTLVTVSS VL: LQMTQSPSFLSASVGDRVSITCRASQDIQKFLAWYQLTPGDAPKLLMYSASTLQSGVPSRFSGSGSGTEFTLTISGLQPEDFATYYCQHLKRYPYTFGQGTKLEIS , report its IC50.
Output: 432

Task: Could you do the same for Fab m18 F99Y (HCDR3) (Fab, V domains shown) VH: VQLLESGPGVVKPSETLSLTCTVSGASVNNYYWTWVRQPPGKGLEWIGNVYDSGDTNYNPSLSSRLSLSMDTSKNQFSLRLSSVTAADTATYYCARYHRHYIRGPLSFDYWGRGTLVTVSS VL: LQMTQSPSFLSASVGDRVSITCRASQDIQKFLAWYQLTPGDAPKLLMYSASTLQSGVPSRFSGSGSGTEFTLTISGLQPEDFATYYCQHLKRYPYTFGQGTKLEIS , please?
Output: 75.3
